- ASSAY REMARKS: Plasma pharmacokinetics (noncompartmental analysis) after single oral administration of Arbequina table olives
- Format: in vivo, Sprague-Dawley rats
- RECORDED CONDITIONS: Sprague-Dawley, rat, plasma, po, both doses (30 and 60 olives groups), oral table olives; read-out: half-life (t1/2λz) (converted)
PROPERTY MEASURED: half-life

Specify measured half-life for OCCc1ccc(O)c(O)c1 [hydroxytyrosol] . ~2.5 h

====

- ASSAY REMARKS: Plasma pharmacokinetics (noncompartmental analysis) after single oral administration of Arbequina table olives
- Type: in vivo, Sprague-Dawley rats
- RECORDED CONDITIONS: Sprague-Dawley, rat, plasma, po, 2.95 mg/kg, 30 olives group (hydroxytyrosol 2.95 mg/kg oral); geometric mean (95% CI); read-out: t1/2λz (apparent elimination half-life)
PROPERTY MEASURED: half-life (h)
Record the value in h, omitting the unit from your answer.

Specify measured half-life for OCCc1ccc(O)c(O)c1 [hydroxytyrosol] . 2.77

====

- ASSAY REMARKS: Plasma pharmacokinetics (noncompartmental analysis) after single oral administration of Arbequina table olives
- Type: in vivo, Sprague-Dawley rats
- RECORDED CONDITIONS: Sprague-Dawley, rat, plasma; 30 olives group (hydroxytyrosol 2.95 mg/kg oral); geometric mean (95% CI); read-out: Cl/F (apparent clearance)
PROPERTY MEASURED: CL/F

Specify measured CL/F for OCCc1ccc(O)c(O)c1 [hydroxytyrosol] . 268 L/h/kg

====

- ASSAY REMARKS: Plasma pharmacokinetics (noncompartmental analysis) after single oral administration of Arbequina table olives
- Assay type: in vivo, Sprague-Dawley rats
- RECORDED CONDITIONS: Sprague-Dawley, rat, plasma, po, 2.95 mg/kg, 30 olives group (hydroxytyrosol 2.95 mg/kg oral); geometric mean (95% CI); read-out: Vss/F (apparent steady-state volume of distribution)
PROPERTY MEASURED: Vd/F (L/kg)
Record the value in L/kg, omitting the unit from your answer.

Specify measured Vd/F for OCCc1ccc(O)c(O)c1 [hydroxytyrosol] . 1140

====

- ASSAY REMARKS: Plasma pharmacokinetics (noncompartmental analysis) after single oral administration of Arbequina table olives
- Format: in vivo, Sprague-Dawley rats
- RECORDED CONDITIONS: Sprague-Dawley, rat, plasma; 60 olives group (hydroxytyrosol 5.89 mg/kg oral); geometric mean (95% CI); read-out: λz (apparent elimination rate constant) (converted)
PROPERTY MEASURED: k el

Specify measured k el for OCCc1ccc(O)c(O)c1 [hydroxytyrosol] . 0.000105 s⁻¹

====

- ASSAY REMARKS: Plasma pharmacokinetics (noncompartmental analysis) after single oral administration of Arbequina table olives
- Assay type: in vivo, Sprague-Dawley rats
- RECORDED CONDITIONS: Sprague-Dawley, rat, plasma; 60 olives group (hydroxytyrosol 5.89 mg/kg oral); geometric mean (95% CI); read-out: MRT0–∞ (converted)
PROPERTY MEASURED: MRT inf (h)
Record the value in h, omitting the unit from your answer.

Specify measured MRT inf for OCCc1ccc(O)c(O)c1 [hydroxytyrosol] . 3.44

====

- ASSAY REMARKS: Plasma pharmacokinetics (noncompartmental analysis) after single oral administration of Arbequina table olives
- Format: in vivo, Sprague-Dawley rats
- RECORDED CONDITIONS: Sprague-Dawley, rat, plasma, po, 5.89 mg/kg, 60 olives group (hydroxytyrosol 5.89 mg/kg oral); geometric mean (95% CI); read-out: Vdarea/F (apparent volume of distribution, terminal phase)
PROPERTY MEASURED: Vd/F (L/kg)
Record the value in L/kg, omitting the unit from your answer.

Specify measured Vd/F for OCCc1ccc(O)c(O)c1 [hydroxytyrosol] . 678
